Reference for the values: patent US8299066B2

- ASSAY_PROTOCOL: Evaluation for brain penetration in rats (cassette dosing)
- Assay type: in vivo
- CONDITION_DETAILS: male, Crl; CD (SD), rat; brain/plasma partition coefficient, 30 minutes after intravenous administration (0.5 mg/mL/kg) in rats
METRIC: Kp at 0.5 h

CC(C)(C)S(=O)(=O)N[C@H]1CC[C@H](c2cc(-c3ccccc3)n[nH]2)CC1 ... 3.69
CC(C)(C)S(=O)(=O)N[C@H]1CC[C@H](c2[nH]nc(-c3ccccc3)c2F)CC1 ... 5.84
CC(C)(C)S(=O)(=O)N[C@H]1CC[C@H](c2cc3nc(-c4ccccc4F)ccc3[nH]2)CC1 ... 2.3
CC(C)(C)S(=O)(=O)N[C@H]1CC[C@H](c2cc(-c3ccc(F)cc3)n[nH]2)CC1 ... 2.28
CC(C)(C)S(=O)(=O)N[C@H]1CC[C@H](c2cc3cc(-c4ncccn4)ccc3[nH]2)CC1 ... 3.55
CC(C)(C)S(=O)(=O)N[C@H]1CC[C@H](c2nc(-c3ccc(Cl)c(Cl)c3)c[nH]2)CC1 ... 1.37
CC(C)(C)S(=O)(=O)N[C@H]1CC[C@H](c2cc3nc(-c4ccc(F)cc4)ncc3[nH]2)CC1 ... 1.91
Cc1c(-c2ccccc2)n[nH]c1[C@H]1CC[C@H](NS(=O)(=O)C(C)(C)C)CC1 ... 1.88
